Observable: melting point

Solved entries (count: 6):
{"Molecule": "O=C1N=C(NO)S/C1=C\\c1cccc(-c2cc(F)c(O)c(C34CC5CC(CC(C5)C3)C4)c2)c1 [Compound 52]", "melting point": "238 to 240 °C"}
{"Molecule": "O=C1N=C(N2CCOCC2)S/C1=C\\c1cccc(-c2ccc(O)c(F)c2)c1 [Compound 64]", "melting point": "233 to 235 °C"}
{"Molecule": "O=C1N=C(N2CCC[C@@H]2C(=O)O)S/C1=C\\c1cccc(-c2cc(F)c(O)c(C34CC5CC(CC(C5)C3)C4)c2)c1 [Compound 76]", "melting point": "164 to 168 °C"}
{"Molecule": "O=C1N=C(N2CCCC2)S/C1=C\\c1cccc(-c2cc(F)c(O)c(C34CC5CC(CC(C5)C3)C4)c2)c1 [Compound 13]", "melting point": "309 to 311 °C"}
{"Molecule": "NNC1=NC(=O)/C(=C/c2cccc(-c3cc(F)c(O)c(C45CC6CC(CC(C6)C4)C5)c3)c2)S1 [Compound 74]", "melting point": "303 to 308 °C"}
{"Molecule": "O=C1N=C(N2CCCCC2)S/C1=C\\c1ccc(-c2ccc(O)c(C34CC5CC(CC(C5)C3)C4)c2)cc1 [Compound 4]", "melting point": "325 to 328 °C"}

For the next question, use this molecule.
Would you mind telling me what melting point value was observed for CN1CCN(C2=NC(=O)/C(=C/c3cccc(-c4cc(F)c(O)c(C56CC7CC(CC(C7)C5)C6)c4)c3)S2)CC1 [Compound 9] ? 226 to 228 °C
